Would you mind telling me the reported self-splicing fitness (ln) of each entry?
Assay: self-splicing fitness, log relative to wild type (ln ratio); higher = more splicing; Tetrahymena group I intron in knt gene, E. coli kanamycin selection, DiMSum; sequences stand for … in CUCUCU…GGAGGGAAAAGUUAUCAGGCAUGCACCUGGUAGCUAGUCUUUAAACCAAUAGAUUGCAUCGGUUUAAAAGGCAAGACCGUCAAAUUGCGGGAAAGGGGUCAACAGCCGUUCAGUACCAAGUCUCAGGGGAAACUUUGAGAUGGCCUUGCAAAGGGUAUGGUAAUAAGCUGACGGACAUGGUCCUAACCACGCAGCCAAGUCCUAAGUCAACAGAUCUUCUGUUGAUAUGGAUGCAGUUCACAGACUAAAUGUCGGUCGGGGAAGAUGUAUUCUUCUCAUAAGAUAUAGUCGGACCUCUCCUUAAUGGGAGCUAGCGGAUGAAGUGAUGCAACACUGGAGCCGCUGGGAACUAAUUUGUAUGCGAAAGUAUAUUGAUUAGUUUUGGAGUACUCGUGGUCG;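 also: selection with 25 µg/mL kanamycin versus none on LB agar overnight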
Settings: 37 °C
// no unit string in output, number only

Look at this sequence and give its reported self-splicing fitness (ln). "AAAGAGCAAUAUUACGCUUU"
-3.68

Reported self-splicing fitness (ln) for "UGGGAGCAAUAUUACGGUUU" : what is it?
-3.35

Data request, read-out self-splicing fitness (ln), for "CGGUAGCAAUAUUACGCCGA"
-1.5

Can you share its self-splicing fitness (ln)? I mean this sequence: "ACCCAGCAAUAUUACGCUCA"
-0.324

Query (sequence): "GGGCAGCAAUAUUACGUGAU" ; field requested: self-splicing fitness (ln)
0.0478

Given the entry "UUGAAGCAAUAUUACGGCUG" , report its measured self-splicing fitness (ln).
0.572

Endpoint output: self-splicing fitness (ln) of "ACCGAGCAAUAUUACGUUCA" . Value?
-0.705

Could you tell me which self-splicing fitness (ln) is on file for "GGUAAGCAAUAUUACGCGGC" ?
-1.29

Item under review: "AUAUAGCAAUAUUACGUAUU" . Reported self-splicing fitness (ln)?
-1.63

Data request, read-out self-splicing fitness (ln), for "ACAGAGCAAUAUUACGGUGG"
-3.01

Need self-splicing fitness (ln), item "GUCCAGCAAUAUUACGCCCU"
-0.617

// lookup self-splicing fitness (ln) for "AACAAGCAAUAUUACGCACU"
-0.195

Any idea what self-splicing fitness (ln) was measured for "CGACAGCAAUAUUACGUUAC" ?
-2.29

Need self-splicing fitness (ln), item "UAGAAGCAAUAUUACGCCUG"
0.251

What value of self-splicing fitness (ln) has been recorded for this entry: "UCCAAGCAAUAUUACGUUCU"
-3.9

Tell me the measured self-splicing fitness (ln) of "UCACAGCAAUAUUACGCAGG" , please.
-1.52

Data request, read-out self-splicing fitness (ln), for "GGCGAGCAAUAUUACGUGAA"
-0.0823

What value of self-splicing fitness (ln) has been reported for the following sequence? "GAGAAGCAAUAUUACGUAAU"
-0.98

For the sequence shown here, "GCUAAGCAAUAUUACGUCGC" , give the reported self-splicing fitness (ln).
-2.55

Please report the recorded self-splicing fitness (ln) for "CCUAAGCAAUAUUACGUCAC" .
-1.54

What value of self-splicing fitness (ln) has been reported for the following sequence? "ACCAAGCAAUAUUACGAGGU"
-2.22

May I ask what self-splicing fitness (ln) has been recorded for "UGCUAGCAAUAUUACGGCAC" ?
-2.19

Using the record for "GACCAGCAAUAUUACGAGAU" , report its self-splicing fitness (ln).
-1.05

# query: self-splicing fitness (ln) of entry "CGCUAGCAAUAUUACGACCC"
-0.956

What value of measured self-splicing fitness (ln) is listed for "AUACAGCAAUAUUACGCUGU" ?
-3.51

self-splicing fitness (ln) lookup needed for "GAACAGCAAUAUUACGUCAC" , thanks.
-0.689

Endpoint output: self-splicing fitness (ln) of "AUCAAGCAAUAUUACGCCUC" . Value?
-1.6

I'd like to know its self-splicing fitness (ln). The sequence in question is "CCCGAGCAAUAUUACGAAAU"
-0.929

// returns reported self-splicing fitness (ln) for input "GAACAGCAAUAUUACGUUUC"
-2.53

For "ACCAAGCAAUAUUACGCGCC" , what is its reported self-splicing fitness (ln)?
0.198

Any idea what self-splicing fitness (ln) was measured for "CCACAGCAAUAUUACGCUGC" ?
-2.72

Entry under review: "UCAUAGCAAUAUUACGAGGC" . Reported self-splicing fitness (ln)?
-1.44

Query: self-splicing fitness (ln); subject: "AACUAGCAAUAUUACGUAGU"
-1.39

If you can, please state the reported self-splicing fitness (ln) value of "UGCAAGCAAUAUUACGAUAU" .
-0.49

Data request, read-out self-splicing fitness (ln), for "UCCAAGCAAUAUUACGUAAA"
-0.00199

For "GGAUAGCAAUAUUACGAAAC" , what is its reported self-splicing fitness (ln)?
-0.834

// self-splicing fitness (ln) lookup, key: "GAAUAGCAAUAUUACGGCCU"
0.112

Endpoint output: self-splicing fitness (ln) of "CAAUAGCAAUAUUACGAUAA" . Value?
-3.1

Name the recorded self-splicing fitness (ln) for "GCACAGCAAUAUUACGUCGU" .
0.241

// returns reported self-splicing fitness (ln) for input "CCAAAGCAAUAUUACGUCGG"
-2.23

// lookup self-splicing fitness (ln) for "UAGAAGCAAUAUUACGUUGU"
-2.47

What measured self-splicing fitness (ln) goes with "AUGGAGCAAUAUUACGCCCU" ?
-2.13

What does the data say about its self-splicing fitness (ln)? Entry: "AAUUAGCAAUAUUACGACCA"
0.48

Any idea what self-splicing fitness (ln) was measured for "UAUCAGCAAUAUUACGAGUG" ?
-0.197

Reported self-splicing fitness (ln) for "CUUCAGCAAUAUUACGCUGC" : what is it?
-1.65

Record request: self-splicing fitness (ln) value, item "UCAGAGCAAUAUUACGAAGA"
-2.32

Could you share which self-splicing fitness (ln) value was measured for "AUAUAGCAAUAUUACGACGU" ?
0.433

Query (sequence): "GGCAAGCAAUAUUACGUAGC" ; field requested: self-splicing fitness (ln)
-2.24

Can you look up the measured self-splicing fitness (ln) of "GAGGAGCAAUAUUACGUUGU" for me?
-1.87

I would be grateful if you could share the reported self-splicing fitness (ln) for "UCGGAGCAAUAUUACGGUGA" .
-1.05

Tell me the measured self-splicing fitness (ln) of "UCCCAGCAAUAUUACGCCCG" , please.
-2.65

What value of measured self-splicing fitness (ln) is listed for "UAAAAGCAAUAUUACGAGGU" ?
-1.59

Name the recorded self-splicing fitness (ln) for "GCGCAGCAAUAUUACGAAAG" .
-1.68

Would you mind telling me what self-splicing fitness (ln) value was observed for "UGACAGCAAUAUUACGCGUA" ?
-0.353

Need self-splicing fitness (ln) of "AGGCAGCAAUAUUACGGAGC" , thanks.
-3.32

Query (sequence): "CGCCAGCAAUAUUACGAUUC" ; field requested: self-splicing fitness (ln)
-3.22

Entry "AUCCAGCAAUAUUACGUUUG" has what self-splicing fitness (ln)?
-2.93

Entry "CAUAAGCAAUAUUACGAUGG" has what self-splicing fitness (ln)?
-0.159

May I ask what self-splicing fitness (ln) has been recorded for "AGUAAGCAAUAUUACGUCCU" ?
0.854

# query: self-splicing fitness (ln) of entry "GCCAAGCAAUAUUACGGAGC"
-2.38

Given the sequence "ACCAAGCAAUAUUACGGAUG" , what is its reported self-splicing fitness (ln)?
-2.48

Given the sequence "GGUCAGCAAUAUUACGUGAC" , what is its reported self-splicing fitness (ln)?
-2

If you can, please state the reported self-splicing fitness (ln) value of "AACGAGCAAUAUUACGACUU" .
-0.7

Would you kindly share the measured self-splicing fitness (ln) for "CUAGAGCAAUAUUACGGGAU" ?
-1.96

State the recorded self-splicing fitness (ln) for this entry: "GAAAAGCAAUAUUACGAAGG"
-3.01

Value lookup for self-splicing fitness (ln); key = "CAAUAGCAAUAUUACGUAGA"
-2.37

GET /values?readout=self-splicing fitness (ln)&item= "GUGUAGCAAUAUUACGGCCA"
-0.349

====

Assay: self-splicing fitness, log relative to wild type (ln ratio); higher = more splicing; Tetrahymena group I intron in knt gene, E. coli kanamycin selection, DiMSum; sequences stand for … in CUCUCU…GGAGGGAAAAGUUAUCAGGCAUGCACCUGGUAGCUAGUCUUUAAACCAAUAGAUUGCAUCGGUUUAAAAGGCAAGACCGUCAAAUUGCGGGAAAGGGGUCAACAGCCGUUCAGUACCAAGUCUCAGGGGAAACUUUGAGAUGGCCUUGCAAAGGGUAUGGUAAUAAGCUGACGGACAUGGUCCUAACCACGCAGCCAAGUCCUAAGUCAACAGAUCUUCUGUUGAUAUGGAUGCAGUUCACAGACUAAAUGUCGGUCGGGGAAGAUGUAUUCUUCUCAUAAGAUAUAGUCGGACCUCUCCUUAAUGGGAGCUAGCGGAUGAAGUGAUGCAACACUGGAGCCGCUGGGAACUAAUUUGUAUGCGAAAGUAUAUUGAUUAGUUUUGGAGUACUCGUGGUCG
Details: 37 °C
recorded-metric: self-splicing fitness (ln)

self-splicing fitness (ln) lookup needed for "AACUAGCAAUAUUACGUGUU" , thanks.
-2.45

Item "ACCAAGCAAUAUUACGAGAC" has what recorded self-splicing fitness (ln)?
-2.86

Which measured self-splicing fitness (ln) value corresponds to "CGCCAGCAAUAUUACGAUGG" ?
-2.72

Quick one: self-splicing fitness (ln) for "AUAAAGCAAUAUUACGAGAA" ?
-1.85

Recorded self-splicing fitness (ln) of "GGCUAGCAAUAUUACGCUCG" , please.
-0.647

Look up self-splicing fitness (ln): "UCAAAGCAAUAUUACGGCAU"
-2.75

Which self-splicing fitness (ln) value belongs to "GACUAGCAAUAUUACGACGC" ?
0.0388

Quick check: self-splicing fitness (ln) of "CGGCAGCAAUAUUACGUCCC" ?
0.728

Fill in the blank: the reported self-splicing fitness (ln) of "UUAAAGCAAUAUUACGGCGA" is ____.
0.659

Request the reported self-splicing fitness (ln) associated with "CAACAGCAAUAUUACGUAUU"
-1.58

For the sequence "GUCCAGCAAUAUUACGCUAU" , what self-splicing fitness (ln) is on record?
-0.104

What does the data say about its self-splicing fitness (ln)? Entry: "AGGGAGCAAUAUUACGCGGC"
-2.05

Tell me the measured self-splicing fitness (ln) of "UGCCAGCAAUAUUACGCCAA" , please.
-1.8

Please look up its self-splicing fitness (ln): "UGUAAGCAAUAUUACGCGUC"
-2.65

Please look up its self-splicing fitness (ln): "UGCUAGCAAUAUUACGAACU"
-0.251

Look up self-splicing fitness (ln): "UAAAAGCAAUAUUACGCGGA"
-0.32
